Test system: senescent A549 cells
Experiment: Viability of senescent A549 cancer cells (CellTiter-Glo), Example 12
Format: cell-based, human
Details: […]; 0 μM = 100
Please note: T applies when Survival is 90% or greater, and F applies otherwise.

{"SUBSTANCE_SMILES": "C[N+](C)(C)CCO.C[N+](C)(C)CCO.[SH-].[SH-].[S]=[Mo]=[S]", "TESTED_ON": "senescent A549 cells", "GROUP_LABEL": "F"}
{"SUBSTANCE_SMILES": "S=C(N/N=C1\\CCCc2cccnc21)N1CCN(c2ccccn2)CC1", "TESTED_ON": "senescent A549 cells", "GROUP_LABEL": "F"}

Lookup: Test whether the compound CCOC(=O)[C@@H](N)CCC(=O)N[C@@H](CSCc1ccccc1)C(=O)N[C@@H](C(=O)OCC)c1ccccc1 records Survival of 90% or higher.
Found: T

----------
Tested on: senescent A549 cells
Assay: Viability of senescent A549 cancer cells (CellTiter-Glo), Example 12
Type: cell-based, human
Details: 1.1 μM; 0 μM = 100
MEASURED_ATTRIBUTE: Survival (%)
Supply the numeric figure in %, leaving out any unit text.

A selection of reference data follows.
{"MOLECULE": "S=C(N/N=C1\\CCCc2cccnc21)N1CCN(c2ccccn2)CC1", "Survival [%]": 78.1}
{"MOLECULE": "CCOC(=O)[C@@H](N)CCC(=O)N[C@@H](CSCc1ccccc1)C(=O)N[C@@H](C(=O)OCC)c1ccccc1", "Survival [%]": 102.7}
{"MOLECULE": "C[N+](C)(C)CCO.C[N+](C)(C)CCO.[SH-].[SH-].[S]=[Mo]=[S]", "Survival [%]": 98.6}
{"MOLECULE": "CN(Cc1cnc2nc(N)nc(N)c2n1)c1ccc(C(=O)N[C@@H](CCC(=O)O)C(=O)O)cc1 [LX-2901, Methotrexate]", "Survival [%]": 89}

Switching to the query record.
Just so you know, measured Survival for Cc1nc(-c2nc(-c3ccc(OC(F)(F)F)cc3)no2)nn1Cc1cccc(N2CCC(S(C)(=O)=O)CC2)c1 came out at 94.9

----------
Listed here are molecules together with their documented Liver p16 mRNA.
Test system: naturally aged mice
Assay: Anti-aging evaluation in naturally aged mice, Example 31, Table 55;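 further: Vehicle-dosed control mice received solution alone at matching volume, values compare test-compound-treated aged mice against that control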
Assay type: in vivo, mouse
Conditions: liver, untreated = 100%
Answer by giving the amount and then stating its unit.

// known answers, use as guide
{"MOLECULE": "Cc1nc(-c2nc(-c3ccc(OC(F)(F)F)cc3)no2)nn1Cc1cccc(N2CCC(S(C)(=O)=O)CC2)c1", "TESTED_ON": "naturally aged mice", "Liver p16 mRNA": "77%"}
{"MOLECULE": "CC12CCN(CC1)C(CNC(=O)C(F)(F)F)C2=O (centres unmarked)", "TESTED_ON": "naturally aged mice", "Liver p16 mRNA": "64%"}
{"MOLECULE": "CC(=O)N[C@@H](Cc1c[nH]c2ccccc12)C(=O)N[C@@H](CCC(=O)C=[N+]=[N-])C(=O)OC(C)C", "TESTED_ON": "naturally aged mice", "Liver p16 mRNA": "80%"}
{"MOLECULE": "[2H]C([2H])([2H])OCC1(CO)C(=O)C2CCN1CC2 (centres unmarked)", "TESTED_ON": "naturally aged mice", "Liver p16 mRNA": "41%"}
{"MOLECULE": "Cc1oncc1C(=O)Nc1ccc(C(F)(F)F)cc1 [LX-1603, Leflunomide]", "TESTED_ON": "naturally aged mice", "Liver p16 mRNA": "74%"}

get_value(item= C[S+]([O-])CCCCN=C=S (centres unmarked) , readout=Liver p16 mRNA) returns 65%

Liver p16 mRNA for CCN(CC1C(=O)C2CCN1CC2)C(=O)C(Cl)(Cl)Cl (centres unmarked) is 47%

Looking up CN(NC(=O)CC(=O)NN(C)C(=S)c1ccccc1)C(=S)c1ccccc1 , I found its Liver p16 mRNA recorded as 38%
